Task for the reader: assign each of the following variants its reported protein stability index.
B1: RIT1 (parent)
chain: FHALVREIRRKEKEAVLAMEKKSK

Variants of: B1
TEST_SUMMARY: protein stability index of a GFP-peptide fusion (GPS, HEK-293T) (PSI 1-6); higher = more stable;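 further: lentivirally expressed fusions sorted by FACS into six bins by GFP to DsRed ratio, PSI derived from sequencing read proportions per bin multiplied by bin number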
APPLIED_CONDITIONS: c terminus: a fixed tail appended

// for each variant in input: emit protein stability index
1. K13A
2. V5F
3. K13C
4. E7H

Found:
1. 2.04
2. 1.97
3. 2.01
4. 1.97
